I'd be grateful if you could share measured Growth Rate for these entries.
# System: U2OS
# TEST_METHOD_NOTES: Incucyte cell viability with U2OS; note: unitless GR value; below 1 slowed growth and below 0 cell loss
# Assay type: toxicity, cell-based
# MEASUREMENT_CONDITIONS: human, 12 h, 10 µM, compound concentration 10 uM, replicate number 2
Respond numerically, and do not add a unit to the figure.

Q: Any idea what its Growth Rate is? The molecule is CC[C@@H](C(=O)OC)n1c(=O)c2ccccc2n(Cc2cn(C)c3cccc(C)c23)c1=O
Ans: 0.97

Q: Request: O=C1Nc2ccc(C(=O)c3ccco3)cc2C1=Cc1cc(Cl)c(O)c(Cl)c1 [GW406108X]
Ans: 0.24

Q: Request: CCOc1ccccc1C(=O)NCC1(N2CCN(CC)CC2)CCCCC1
Ans: 0.88

Q: Request: NS(=O)(=O)c1cncc(-c2nc(NCc3ccccn3)c3c(-c4ccccc4)cccc3n2)c1 [BMS-919373]
Ans: 0.71

Q: Request: Cc1ncsc1-c1ccc(CNC(=O)[C@@H]2C[C@@H](O)CN2C(=O)[C@@H](NC(=O)CCCCNC(=O)c2ccc(-c3ccc(N4CCN(C)CC4)c(NC(=O)c4c[nH]c(=O)cc4C(F)(F)F)c3)cc2)C(C)(C)C)cc1
Ans: 0.84

Q: Request: CCc1ncnc(N2CCN(C(C)=O)CC2)c1C#Cc1ccc(N)nc1.Cl.Cl
Ans: 0.99

Q: Request: CN(C)C(=O)Cn1cc(-c2ccc(-c3nnc4ccccn34)cc2)cn1
Ans: 0.88

Q: Request: COCCNc1nc2ccc(C#CC3(O)CCCCC3)cc2n1-c1ccnc(N)n1
Ans: 0.69

Q: Request: COCCN1CCN(CCn2ccc(Nc3ncc4c(n3)-c3c(nn(C)c3-c3ccccc3)C[C@H]4C)n2)CC1
Ans: -0.9

Q: Request: Cc1cccc(-c2nn3c(c2-c2ccnc4ccc(C(N)=O)cc24)CCC3)n1 [GALUNISERTIB]
Ans: 0.83

Q: Request: COc1ncc(-c2cc(-c3ncc(CN4C[C@@H](C)O[C@@H](C)C4)o3)c3cn[nH]c3c2)cc1NS(C)(=O)=O
Ans: 0.02

Q: Request: Cn1c(C2(NC(=O)c3ccc4c(C5CCCC5)c(-c5ncc(Br)cn5)n(C)c4c3)CCC2)nc2ccc(/C=C/C(=O)[O-])cc21.[Na+] [DELEOBUVIR SODIUM]
Ans: 0.79

Q: Request: CCCCCN1C(=O)C2(COc3cc4c(cc32)OCO4)c2ccccc21 (centres undefined)
Ans: 0.8

Q: Request: O=c1cc(-c2ccccc2)oc2c1ccc1ccccc12 [ALPHA-NAPHTHOFLAVONE]
Ans: 0.63

====

# System: U2OS
# TEST_METHOD_NOTES: Incucyte cell viability with U2OS; note: unitless GR value; below 1 slowed growth and below 0 cell loss
# Format: toxicity, cell-based
# MEASUREMENT_CONDITIONS: human, 6 h, 10 µM, compound concentration 10 uM, replicate number 2
Field 'label' (enum: 1 (yes) / 0 (no)). Set to 1 (yes) when Growth Rate is strictly under -0.2; else 0 (no).

Q: Below -0.2 on Growth Rate? Entry COc1ccc2c(O[C@@H]3C[C@H]4C(=O)N[C@]5(C(=O)O)CC5/C=C\CCCCC[C@H](NC(=O)OC5CCCC5)C(=O)N4C3)cc(-c3csc(NC(=O)C(C)C)n3)nc2c1C (stereo partly drawn)
Ans: 0 (no)

Q: Request: CNc1nc(-c2cc(C(=O)N3CCN(Cc4ccc(Cl)cc4)CC3)c(Cl)cn2)cs1
Ans: 1 (yes)

Q: Request: CC(=O)c1c(C)c2cnc(Nc3ccc(N4CCNCC4)cn3)nc2n(C2CCCC2)c1=O
Ans: 0 (no)

Q: Request: CN(CCCCCCC1=C(c2cc(F)cc(F)c2)CCCc2cc(O)ccc21)CCCCS(=O)(=O)CCCC(F)(F)F
Ans: 1 (yes)

Q: Request: CN1CCN(C(=O)Cc2ccc(N/C(=C3\C(=O)Nc4cc(Cl)ccc43)c3ccccc3)cc2)CC1
Ans: 0 (no)

Q: Request: O=S1(=O)NCN(C2CC2)c2ccc(F)cc21
Ans: 0 (no)

Q: Request: CCn1cnc2c(-c3ccc(F)c(-c4ccc(S(=O)(=O)CC)cc4OC)c3)cnnc21
Ans: 1 (yes)

Q: Request: Cc1ccc(C(=O)Nc2cc(N3CCN(C)CC3)cc(C(F)(F)F)c2)cc1-n1cc(-c2cnn(C)c2C)nn1.Cl
Ans: 0 (no)
